# RUN DESCRIPTION: Cytotoxicity against human DC at 250 uM after 24 hrs by propidium iodide staining-based flow cytometry

| COMPOUND | Activity |
| --- | --- |
| O=C(NCC(CNC(=O)c1ccc2ccccc2c1)O[C@H]1O[C@H](CO)[C@@H](O)[C@H](O)[C@@H]1O)c1ccc2ccccc2c1 | Toxic |
| OC[C@H]1O[C@H](OCC(COc2ccc3ccccc3c2)Oc2ccc3ccccc3c2)[C@@H](O)[C@@H](O)[C@@H]1O (mixture of isomers) | Toxic |
| COc1ccc2ccc(OCC(COc3ccc4ccc(OC)cc4c3)O[C@H]3O[C@H](CO)[C@@H](O)[C@H](O)[C@@H]3O)cc2c1 | Toxic |
| OC[C@H]1O[C@H](OC(COc2cccc3ccccc23)COc2cccc3ccccc23)[C@@H](O)[C@@H](O)[C@@H]1O | Toxic |

* * *

# RUN DESCRIPTION: Cytotoxicity against human DC at 50 uM after 24 hrs by propidium iodide staining-based flow cytometry
PROPERTY MEASURED: Activity

For orientation, consider the following solved cases.
| MOLECULE | Activity |
| --- | --- |
| O=C(NCC(CNC(=O)c1ccc2ccccc2c1)O[C@H]1O[C@H](CO)[C@@H](O)[C@H](O)[C@@H]1O)c1ccc2ccccc2c1 | Non-toxic |
| OC[C@H]1O[C@H](OC(COc2cccc3ccccc23)COc2cccc3ccccc23)[C@@H](O)[C@@H](O)[C@@H]1O | Non-toxic |
| N#Cc1ccc(C(=O)NCC(CNC(=O)c2ccc(C#N)cc2)O[C@H]2O[C@H](CO)[C@@H](O)[C@H](O)[C@@H]2O)cc1 | Non-toxic |
| COc1ccc2ccc(OCC(COc3ccc4ccc(OC)cc4c3)O[C@H]3O[C@H](CO)[C@@H](O)[C@H](O)[C@@H]3O)cc2c1 | Non-toxic |

Measured Activity, OC[C@H]1O[C@H](OCC(COc2ccc3ccccc3c2)Oc2ccc3ccccc3c2)[C@@H](O)[C@@H](O)[C@@H]1O (mixture of isomers) : Non-toxic

Query COc1ccc(OCC(CO[C@H]2O[C@H](CO)[C@@H](O)[C@H](O)[C@@H]2O)Oc2ccc(OC)cc2)cc1 (mixture of isomers) yields Activity of Non-toxic
